# Experimental Details: NCI Yeast Anticancer Drug Screen. Data for the bub3 strain (AID 167)
# Experimental Conditions: S. cerevisiae bub3 mutant strain, at 50.0 µM, hits give high values
The panel holds about 79,000 compounds, 15% with a hit somewhere; the sample as a whole holds those more often.
Each record here notes measured growth inhibition.
Assay Endpoint: growth inhibition (%)

>>> recorded_number("CCOc1ccc(N2C(=O)NC3(c4ccccc4)N(C)C(=O)N(C)C23c2ccccc2)cc1 (stereo unspecified)")
17.1
>>> recorded_number("CCCCCCCCCCCCCCCCOc1ccc(-c2cc(=O)n(C)n2C)cc1OC")
-8.55
>>> recorded_number("Cc1ccc2nc(NS(=O)(=O)c3cc(C)c(Cl)cc3S)[nH]c2c1")
16.4
>>> recorded_number("CCOC(=O)c1ccc(N)cc1")
-18.6
>>> recorded_number("CC(=C(C#N)C#N)c1ccccc1")
2.8
>>> recorded_number("C#CCN")
8.05
